Test: qHTS assay to identify small molecule antagonists of the thyroid receptor (TR) signaling pathway - cell viability counter screen (AID 743064); further: nearly all actives have a fitted effect of over 50% in size
Details: GH3.TRE-Luc viability, CellTiter-Fluor, 24 h; series mostly up to 70.3 µM
Inconclusive results are not listed. The source made the active and inactive calls. The call rests on the fitted dose curve; in most records, active means well fitted cell-killing curve with a large enough effect in the repeat runs; inconclusive means weak or mixed curves, or effect the other way; inactive means no such curve, though single readings can be large or run the other way.
One label from this list, please: active, inactive

These recorded examples may help you get a feel for the data.
1. C=CC(=O)OCCOc1ccccc1 :: inactive
2. CO[C@@H]1[C@H](OC(=O)/C=C/C=C/C=C/C=C/C(=O)O)CC[C@]2(CO2)[C@H]1[C@@]1(C)O[C@@H]1CC=C(C)C :: inactive
3. CN1CCC(=C2c3ccccc3Sc3ccccc32)CC1 :: active
4. OC[C@H]1O[C@@H](OCCc2ccc(O)cc2)[C@H](O)[C@@H](O)[C@@H]1O :: inactive
5. Cc1ccccc1S(=O)(=O)O :: inactive
6. CN1CCN(C(c2ccccc2)c2ccccc2)CC1 :: inactive
7. CCOc1ccc(N)c([N+](=O)[O-])c1 :: inactive
8. O=C1OC(=O)C2C3C=CC(C3)C12 (centres undefined) :: inactive
9. CC1OC(=O)C(C)OC1=O (centres undefined) :: inactive
10. CCCCCCCC#N :: inactive

Data request: Check the results log: what was the call for `CCO[C@H](Cc1ccc(OCCc2ccc(OS(C)(=O)=O)cc2)cc1)C(=O)O` ?
Data returned: inactive

Data request: Hey, what did the test say about `CCCCCCc1ccc(-c2ccc(C#N)cc2)cc1` ?
Data returned: inactive

Data request: Given `CCC(CC)Nc1ccc(C)c(C)c1` , state the outcome it received in this test.
Data returned: inactive

Data request: Dear all, I need the recorded test outcome for `CN1C[C@H]2c3ccccc3Oc3ccc(Cl)cc3[C@@H]2C1` , thank you.
Data returned: active

----------
Test: qHTS assay to identify small molecule antagonists of the progesterone receptor (PR) signaling pathway - cell viability counter screen (AID 1346798); further: nearly all actives have a fitted effect of over 50% in size
Details: PR-UAS-bla HEK293T viability, CellTiter-Glo luminescence, 16 h; series mostly up to 92.4 µM
Inconclusive results are not listed. The source made the active and inactive calls. Calls come from the whole dose curve; as a rule, active = well fitted cell-killing curve with a large enough effect in the repeat runs; inconclusive = weak or mixed curves, or effect the other way; inactive = no such curve, though single readings can be large or run the other way.
Entry note: the call must match one of T (active), F (inactive)

1) CC(C)=CCC/C(C)=C/CC/C(C)=C/CO :: F

Data request: What did this assay record as the result for `COC(C)(C)CCO` ?
Data returned: F

Data request: Per the assay record, what outcome was assigned to `CCCCCCCN` ?
Data returned: F

Data request: Per the records of this test, what outcome belongs to CC(C)Cc1ccc(C(C)C(=O)OCc2ccccn2)cc1 (centres undefined) ?
Data returned: F

Data request: Entry `CCCCCCCCCCCCCCCCCCOS(=O)(=O)O` : call = ?
Data returned: T

Data request: In this assay, the call recorded for `CCCCCCCCCCCCN1CCCCCC1=O` was what?
Data returned: F

Data request: Per the assay record, what outcome was assigned to CCCCC(CC)COC(=O)COc1ccc(Cl)cc1Cl (centres undefined) ?
Data returned: F

Data request: Assay result, entry `CCOC(=O)COC(=O)c1cc(Oc2ccc(C(F)(F)F)cc2Cl)ccc1[N+](=O)[O-]` — outcome?
Data returned: F

Data request: Tell me the assay call for `Cc1ncc(CO)c(C=O)c1O` please.
Data returned: F

Data request: Please share the test call associated with `CCCCCCOC(=O)NC(=N)c1ccc(NCc2nc3cc(C(=O)N(CCC(=O)OCC)c4ccccn4)ccc3n2C)cc1` .
Data returned: T

Data request: Record lookup: outcome of this test for `CCCCO` ?
Data returned: F

Data request: Returns: the outcome recorded for `CCOC(=O)Cc1cccc2ccccc12` in this assay.
Data returned: F

Data request: Kindly provide the recorded test outcome for the following compound: `CC1=CC=C(C(C)C)CC1`
Data returned: F

Data request: Per the records of this test, what outcome belongs to `O=[N+]([O-])c1ccc(NCCO)c(OCCO)c1` ?
Data returned: F
